molecular target: MCL-1ΔNΔC (Homo sapiens); assay: High-throughput competitive FP binding screen, FITC-MCL-1 SAHB/MCL-1ΔNΔC interaction; parameters: the C-terminal alpha-helix was deleted from each of these constructs; GST (N, cleaved yes); made in house; conditions: FITC-MCL-1 SAHB/MCL-1ΔNΔC interaction pair, competitive FP screen
Sequence (Q07820 172-320 limits assumed, stated change not applied): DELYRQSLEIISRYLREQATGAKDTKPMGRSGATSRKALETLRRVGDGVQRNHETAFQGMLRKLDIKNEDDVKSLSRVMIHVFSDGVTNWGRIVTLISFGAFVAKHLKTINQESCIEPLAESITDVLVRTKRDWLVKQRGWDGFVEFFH
// values below are reported MCL-1% Bound
Reply numerically in %, unit not repeated.

Consider the worked cases shown below.
> print(dat)
                                   compound  value.observed
1              Cc1ccc(C)n1Cc1ccc(C(=O)O)cc1            36.6
2  CCN(CC)c1ccc(C2C(C#N)=C(N)N(c3cccc(C)c3)C3=C2C(=O)CCC3)cc1 (stereo not shown)           53.01
3  O=C1NC(=O)/C(=C/c2ccc(-c3ccc(S(=O)(=O)N4CCOCC4)cc3)o2)S1           38.57

Problem: // map `O=c1ccc(-c2ccco2)nn1Cc1ccc(Cl)c(Cl)c1` to recorded MCL-1% Bound (system: MCL-1ΔNΔC (Homo sapiens))
Solution: 46.79

Problem: // map O=C(CC1C(=O)c2ccccc2S1(=O)=O)NC1=NN(c2ccccc2)C(=O)C1 (stereo not shown) to recorded MCL-1% Bound (system: MCL-1ΔNΔC (Homo sapiens))
Solution: 7.61

Problem: // map O=C1C(Sc2nc[nH]n2)=CC(NS(=O)(=O)c2ccc(F)cc2)c2ccccc21 (stereo not shown) to recorded MCL-1% Bound (system: MCL-1ΔNΔC (Homo sapiens))
Solution: 4.952

Problem: // map `CNc1sc(C(=O)c2cccs2)c(N)c1-c1nc2ccccc2s1` to recorded MCL-1% Bound (system: MCL-1ΔNΔC (Homo sapiens))
Solution: 44.25

Problem: // map `Cc1ncc(CO)c2c1Oc1nc(-c3ccccc3)[nH]c(=S)c1C2` to recorded MCL-1% Bound (system: MCL-1ΔNΔC (Homo sapiens))
Solution: 66.14
